# Measured Target: Recombinant human JAK2 kinase domain protein (Residues 812-1132) (Homo sapiens)
# Sequence (O60674 812-1132): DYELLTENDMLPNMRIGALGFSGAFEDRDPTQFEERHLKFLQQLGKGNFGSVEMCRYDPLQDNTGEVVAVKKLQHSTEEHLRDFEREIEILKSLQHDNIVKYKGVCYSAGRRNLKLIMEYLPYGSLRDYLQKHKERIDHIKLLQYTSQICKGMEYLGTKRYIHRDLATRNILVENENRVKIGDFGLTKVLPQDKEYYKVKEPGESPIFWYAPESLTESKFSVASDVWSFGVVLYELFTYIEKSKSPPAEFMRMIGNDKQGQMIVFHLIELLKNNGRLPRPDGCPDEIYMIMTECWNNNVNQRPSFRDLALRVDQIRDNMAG
# Protocol Description: JAK2 biochemical assay (LabChip mobility shift, Ki)
# Experimental Parameters: Biochem JAK2 Ki
pKi: −log10 of the molar value.
Each entry below carries its recorded pKi.

Compound: Cn1cc(NC(=O)c2cnn3cccnc23)c(-c2cc(Oc3cnn(C4CCNC4)c3)ccc2OC(F)F)n1 (racemic)
Measured Target: Recombinant human JAK2 kinase domain protein (Residues 812-1132) (Homo sapiens)
pKi: 8.82
--
Compound: CN(Cc1cccc(Oc2ccc(OC(F)F)c(-c3nn(C)cc3NC(=O)c3cnn4cccnc34)c2)c1)CC(C)(C)C#N
Measured Target: Recombinant human JAK2 kinase domain protein (Residues 812-1132) (Homo sapiens)
pKi: 8.89
--
Compound: CN(CCO)Cc1cccc(Oc2ccc(OC(F)F)c(-c3nn(C)cc3NC(=O)c3cnn4cccnc34)c2)c1
Measured Target: Recombinant human JAK2 kinase domain protein (Residues 812-1132) (Homo sapiens)
pKi: 9.51
--
Compound: CC(C)(C#N)c1ccc(Oc2ccc(OC(F)F)c(-c3n[nH]cc3NC(=O)c3cnn4cccnc34)c2)cc1
Measured Target: Recombinant human JAK2 kinase domain protein (Residues 812-1132) (Homo sapiens)
pKi: 8.92
--
Compound: CN1CCCC(O)(Cn2cc(Oc3ccc(OC(F)F)c(-c4nn(C)cc4NC(=O)c4cnn5cccnc45)c3)cn2)CC1 (stereo not shown) [Example 196]
Measured Target: Recombinant human JAK2 kinase domain protein (Residues 812-1132) (Homo sapiens)
pKi: 9.28
--
Compound: Cc1cc(Oc2ccc(OC(F)F)c(-c3nn(C)cc3NC(=O)c3cnn4cccnc34)c2)ccc1C(=O)N1CCN(C)CC1
Measured Target: Recombinant human JAK2 kinase domain protein (Residues 812-1132) (Homo sapiens)
pKi: 9.40
--
Compound: Cn1cc(NC(=O)c2cnn3cccnc23)c(-c2cc(Oc3cnn(CC4(O)CNC4)c3)ccc2OC(F)F)n1
Measured Target: Recombinant human JAK2 kinase domain protein (Residues 812-1132) (Homo sapiens)
pKi: 9.25
--
Compound: Cn1cc(NC(=O)c2cnn3cccnc23)c(-c2cc(Oc3ccc(CN4CCCCC4CO)cc3)ccc2OC(F)F)n1 (racemic)
Measured Target: Recombinant human JAK2 kinase domain protein (Residues 812-1132) (Homo sapiens)
pKi: 9.47
--
Compound: Cn1cc(NC(=O)c2cnn3cccnc23)c(-c2cc(Oc3cnn(CCC4CO4)c3)ccc2OC(F)F)n1 (stereo not shown)
Measured Target: Recombinant human JAK2 kinase domain protein (Residues 812-1132) (Homo sapiens)
pKi: 8.96
--
Compound: Cn1cc(NC(=O)c2cnn3cccnc23)c(-c2cc(Oc3cccc(CN)n3)ccc2OC(F)F)n1
Measured Target: Recombinant human JAK2 kinase domain protein (Residues 812-1132) (Homo sapiens)
pKi: 8.89
